Target: T1, GST-human NOGO-A56 (human, UniProt Q9NQC3 586-785)
T1 construct: also called hNOGO; recombinant human NOGO; not shown: Glutathione S-transferase (GST) tag encoded by vector pGEX-6P1, N-terminal to the NOGO-A fragment; the tag and linker se
T1 sequence: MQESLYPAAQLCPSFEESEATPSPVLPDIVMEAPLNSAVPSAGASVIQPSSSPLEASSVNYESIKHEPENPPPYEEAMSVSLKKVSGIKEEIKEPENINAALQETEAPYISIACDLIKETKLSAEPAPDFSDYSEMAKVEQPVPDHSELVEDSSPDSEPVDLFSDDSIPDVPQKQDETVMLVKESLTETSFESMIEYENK
Test: SPR off-rate ranking (Biacore), CHO-K1 transfection supernatant over GST-human NOGO-A56 chip; single experiment
measureName: koff (s⁻¹)
Express the result in s⁻¹ but write the number alone.

Request: I would be grateful if you could share the reported koff for H6L18 (antibody, human IgG1, kappa, V domains shown, Humanised 2A10; tested as CHO-K1 transfection supernatant; Human gamma-1 mutated constant region, human kappa) VH: QVQLVQSGAEVKKPGASVKVSCKASGYTFTSYWMHWVRQAPGQGLEWIGNINPSNGGTNYNEKFKSRATMTRDTSTSTAYMELSSLRSEDTAVYYCELGQGYWGQGTLVTVSS VL: DIVMTQDPLSNPVTLGQPVSISCRSSKSLLYKDGKTYLNWFLQRPGQSPQLLIYLMSTRASGVSDRFSGSGSGTDFTLKISRVEAEDVGVYYCQQLVEYPLTFGQGTKLEIKR .
Result: 0.0106

Request: I would be grateful if you could share the reported koff for H18L18 (antibody, human IgG1, kappa, V domains shown, Humanised 2A10; tested as CHO-K1 transfection supernatant; Human gamma-1 mutated constant region, human kappa) VH: QVQLVQSGAEVVKPGASVKLSCKASGYTFTSYWMHWVKQRPGQGLEWIGNINPSNGGTNYNEKFKSKATLTVDKSSSTAYMELSSLRSEDSAVYYCELGQGYWGQGTLVTVSS VL: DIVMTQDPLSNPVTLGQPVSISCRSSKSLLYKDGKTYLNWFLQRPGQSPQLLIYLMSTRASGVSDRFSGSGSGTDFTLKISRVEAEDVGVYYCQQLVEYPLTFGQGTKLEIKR .
Result: 0.0058

Request: I would be grateful if you could share the reported koff for H6L15 (antibody, human IgG1, kappa, V domains shown, Humanised 2A10; tested as CHO-K1 transfection supernatant; Human gamma-1 mutated constant region, human kappa) VH: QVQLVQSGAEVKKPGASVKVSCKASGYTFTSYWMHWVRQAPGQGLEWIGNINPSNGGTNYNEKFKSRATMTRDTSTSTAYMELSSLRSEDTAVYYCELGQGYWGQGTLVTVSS VL: DIVMTQSPLSLPVTLGQPASISCRSSKSLLYKDGKTYLNWFLQRPGQSPQLLIYLMSTRASGVSDRFSGGGSGTDFTLKISRVEAEDVGVYYCQQLVEYPLTFGQGTKLEIKR .
Result: 0.0211
